Hello, the source for this data is patent US20250250357A1, in case you need it.

Target: T1, human MSLN-FL-his protein (human, UniProt Q13421 296-580)
T1 construct: made in HEK293E cells, purified on nickel column; also called hMSLN-FL-his; human MSLN full-length protein; not shown: His tag
T1 sequence (Q13421 other isoform, or with tags, fused parts or gaps): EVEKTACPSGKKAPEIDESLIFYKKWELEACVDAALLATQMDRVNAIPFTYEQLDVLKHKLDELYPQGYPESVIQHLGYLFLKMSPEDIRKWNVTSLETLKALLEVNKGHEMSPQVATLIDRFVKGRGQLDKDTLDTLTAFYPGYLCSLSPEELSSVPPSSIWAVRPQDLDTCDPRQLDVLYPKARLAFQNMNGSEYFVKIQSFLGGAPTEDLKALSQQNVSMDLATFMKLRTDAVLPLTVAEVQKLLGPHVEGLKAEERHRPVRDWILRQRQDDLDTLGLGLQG
Assay: competitive ELISA; row F8-19.21; also: test concentration or dose not given here
# competition rate values compiled below

{"binder": "S009-F8-18.9 (antibody, human IgG1, kappa, V domains shown, human-murine chimeric antibody, human IgG1/kappa constant regions) VH: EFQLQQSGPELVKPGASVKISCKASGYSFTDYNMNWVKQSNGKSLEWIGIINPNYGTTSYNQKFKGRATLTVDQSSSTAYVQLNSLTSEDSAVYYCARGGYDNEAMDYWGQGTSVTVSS VL: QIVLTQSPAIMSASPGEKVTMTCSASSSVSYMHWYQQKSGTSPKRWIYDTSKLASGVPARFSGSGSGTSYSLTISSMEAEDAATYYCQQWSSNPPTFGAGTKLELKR", "competition rate": "91.3%"}
{"binder": "S009-F8-4.5 (antibody, human IgG1, kappa, V domains shown, human-murine chimeric antibody, human IgG1/kappa constant regions) VH: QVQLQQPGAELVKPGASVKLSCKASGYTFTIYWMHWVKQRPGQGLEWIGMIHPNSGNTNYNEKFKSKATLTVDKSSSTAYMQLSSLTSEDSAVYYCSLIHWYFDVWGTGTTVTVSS VL: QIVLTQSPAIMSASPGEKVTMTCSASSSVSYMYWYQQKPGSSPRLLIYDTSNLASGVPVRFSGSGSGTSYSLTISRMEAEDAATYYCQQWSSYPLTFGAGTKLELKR", "competition rate": "98.9%"}
